Molecular target: PI3Kβ (Homo sapiens, UniProt P42338)
Construct: with Phosphatidylinositol 3-kinase regulatory subunit alpha
Sequence (P42338 whole entry): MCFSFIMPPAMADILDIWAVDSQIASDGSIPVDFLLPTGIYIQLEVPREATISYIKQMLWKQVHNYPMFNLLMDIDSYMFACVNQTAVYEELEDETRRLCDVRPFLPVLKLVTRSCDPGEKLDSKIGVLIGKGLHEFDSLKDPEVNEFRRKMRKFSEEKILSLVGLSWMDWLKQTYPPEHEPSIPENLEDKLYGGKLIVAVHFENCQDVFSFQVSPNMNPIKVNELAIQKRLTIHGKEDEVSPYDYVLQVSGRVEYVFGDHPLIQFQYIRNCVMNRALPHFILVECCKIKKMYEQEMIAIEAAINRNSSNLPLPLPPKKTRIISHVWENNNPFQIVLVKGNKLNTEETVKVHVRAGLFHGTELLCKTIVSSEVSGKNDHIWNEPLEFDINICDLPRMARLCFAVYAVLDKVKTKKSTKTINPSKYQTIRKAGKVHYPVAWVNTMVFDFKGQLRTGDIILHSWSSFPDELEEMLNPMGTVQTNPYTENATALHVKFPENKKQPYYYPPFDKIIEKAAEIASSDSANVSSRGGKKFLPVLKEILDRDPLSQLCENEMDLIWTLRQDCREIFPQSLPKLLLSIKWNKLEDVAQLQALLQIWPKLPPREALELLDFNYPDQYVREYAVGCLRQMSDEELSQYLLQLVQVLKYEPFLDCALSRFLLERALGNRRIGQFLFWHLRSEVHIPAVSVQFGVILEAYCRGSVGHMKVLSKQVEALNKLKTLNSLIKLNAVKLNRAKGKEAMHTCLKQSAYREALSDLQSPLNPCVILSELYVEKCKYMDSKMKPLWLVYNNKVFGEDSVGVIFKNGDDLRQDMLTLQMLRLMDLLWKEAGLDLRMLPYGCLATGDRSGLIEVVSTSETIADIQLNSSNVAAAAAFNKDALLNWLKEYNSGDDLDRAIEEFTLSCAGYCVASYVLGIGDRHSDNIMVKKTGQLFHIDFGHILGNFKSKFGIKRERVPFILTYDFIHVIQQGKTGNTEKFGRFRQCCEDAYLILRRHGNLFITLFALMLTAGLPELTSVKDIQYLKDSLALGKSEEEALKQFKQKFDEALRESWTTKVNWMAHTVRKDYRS
Sequence (P27986 2-724 partner): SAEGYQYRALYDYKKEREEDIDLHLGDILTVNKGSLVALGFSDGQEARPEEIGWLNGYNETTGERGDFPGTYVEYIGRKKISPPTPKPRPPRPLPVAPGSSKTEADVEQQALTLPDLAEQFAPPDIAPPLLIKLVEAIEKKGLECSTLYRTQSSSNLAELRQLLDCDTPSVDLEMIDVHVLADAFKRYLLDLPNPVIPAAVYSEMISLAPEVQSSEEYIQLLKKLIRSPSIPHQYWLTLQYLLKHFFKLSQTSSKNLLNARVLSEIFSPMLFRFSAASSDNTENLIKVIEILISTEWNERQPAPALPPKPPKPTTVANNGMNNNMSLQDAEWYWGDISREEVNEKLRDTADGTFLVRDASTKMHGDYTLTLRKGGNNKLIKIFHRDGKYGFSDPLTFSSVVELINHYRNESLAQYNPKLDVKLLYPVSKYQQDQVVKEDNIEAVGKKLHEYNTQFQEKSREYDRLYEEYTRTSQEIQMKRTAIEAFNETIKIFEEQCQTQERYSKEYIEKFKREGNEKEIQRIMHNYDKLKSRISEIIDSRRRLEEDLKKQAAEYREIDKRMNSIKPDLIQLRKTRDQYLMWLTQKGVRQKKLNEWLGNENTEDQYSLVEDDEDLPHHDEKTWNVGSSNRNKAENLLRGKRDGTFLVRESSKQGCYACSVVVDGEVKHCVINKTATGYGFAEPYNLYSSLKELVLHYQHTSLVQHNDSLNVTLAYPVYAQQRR
Assay: PI3K-Glo ADP detection kinase assay
PARAMETER: IC50

input: # query: IC50 of entry COc1ncc(-c2ccc(NC(=O)/C=C/c3cccnc3)c(-n3ccnc3)c2)cc1NS(C)(=O)=O [CK-3]
output: > 10 µM

###

Target: PI3Kγ (Homo sapiens)
Sequence (P48736 whole entry): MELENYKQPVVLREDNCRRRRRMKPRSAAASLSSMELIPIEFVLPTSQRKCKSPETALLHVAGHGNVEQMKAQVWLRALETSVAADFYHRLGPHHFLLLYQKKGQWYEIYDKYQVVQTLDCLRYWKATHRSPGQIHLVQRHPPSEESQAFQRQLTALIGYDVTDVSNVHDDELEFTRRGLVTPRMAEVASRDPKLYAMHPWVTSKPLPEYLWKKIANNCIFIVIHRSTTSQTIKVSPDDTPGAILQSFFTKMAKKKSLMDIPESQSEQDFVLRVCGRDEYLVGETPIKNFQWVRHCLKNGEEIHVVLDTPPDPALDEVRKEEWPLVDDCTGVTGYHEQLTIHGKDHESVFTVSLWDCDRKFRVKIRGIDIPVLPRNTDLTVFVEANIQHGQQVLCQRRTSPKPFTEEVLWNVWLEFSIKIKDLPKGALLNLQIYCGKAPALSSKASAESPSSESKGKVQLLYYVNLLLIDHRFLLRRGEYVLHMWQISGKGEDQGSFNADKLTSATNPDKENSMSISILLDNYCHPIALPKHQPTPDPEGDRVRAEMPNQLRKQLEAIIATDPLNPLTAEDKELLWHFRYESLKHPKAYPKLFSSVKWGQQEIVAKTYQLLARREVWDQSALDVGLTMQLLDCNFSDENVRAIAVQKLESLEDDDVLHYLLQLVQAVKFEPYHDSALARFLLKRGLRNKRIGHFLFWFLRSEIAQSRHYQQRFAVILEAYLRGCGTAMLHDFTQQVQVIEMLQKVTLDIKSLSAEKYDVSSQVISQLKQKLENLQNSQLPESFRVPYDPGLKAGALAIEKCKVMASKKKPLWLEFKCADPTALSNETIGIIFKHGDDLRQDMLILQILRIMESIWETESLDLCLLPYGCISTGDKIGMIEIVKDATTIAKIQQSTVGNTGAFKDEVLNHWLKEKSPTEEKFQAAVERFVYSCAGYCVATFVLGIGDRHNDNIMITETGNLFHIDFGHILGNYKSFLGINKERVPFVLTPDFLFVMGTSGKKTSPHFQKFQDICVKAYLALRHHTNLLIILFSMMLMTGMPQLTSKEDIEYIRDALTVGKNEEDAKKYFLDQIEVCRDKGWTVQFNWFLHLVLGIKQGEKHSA
pIC50: −log10 of the molar value.
PARAMETER: pIC50

input: What pIC50 appears in the records for this compound with PI3Kγ (Homo sapiens)? COc1ncc(-c2ccc(NC(=O)/C=C/c3cccnc3)c(-n3ccnc3)c2)cc1NS(C)(=O)=O
output: < 5.00

###

Biological target: PI3Kα (Homo sapiens, UniProt P42336)
Construct: gene PIK3CA; with Phosphatidylinositol 3-kinase regulatory subunit alpha
Sequence (P42336 whole entry): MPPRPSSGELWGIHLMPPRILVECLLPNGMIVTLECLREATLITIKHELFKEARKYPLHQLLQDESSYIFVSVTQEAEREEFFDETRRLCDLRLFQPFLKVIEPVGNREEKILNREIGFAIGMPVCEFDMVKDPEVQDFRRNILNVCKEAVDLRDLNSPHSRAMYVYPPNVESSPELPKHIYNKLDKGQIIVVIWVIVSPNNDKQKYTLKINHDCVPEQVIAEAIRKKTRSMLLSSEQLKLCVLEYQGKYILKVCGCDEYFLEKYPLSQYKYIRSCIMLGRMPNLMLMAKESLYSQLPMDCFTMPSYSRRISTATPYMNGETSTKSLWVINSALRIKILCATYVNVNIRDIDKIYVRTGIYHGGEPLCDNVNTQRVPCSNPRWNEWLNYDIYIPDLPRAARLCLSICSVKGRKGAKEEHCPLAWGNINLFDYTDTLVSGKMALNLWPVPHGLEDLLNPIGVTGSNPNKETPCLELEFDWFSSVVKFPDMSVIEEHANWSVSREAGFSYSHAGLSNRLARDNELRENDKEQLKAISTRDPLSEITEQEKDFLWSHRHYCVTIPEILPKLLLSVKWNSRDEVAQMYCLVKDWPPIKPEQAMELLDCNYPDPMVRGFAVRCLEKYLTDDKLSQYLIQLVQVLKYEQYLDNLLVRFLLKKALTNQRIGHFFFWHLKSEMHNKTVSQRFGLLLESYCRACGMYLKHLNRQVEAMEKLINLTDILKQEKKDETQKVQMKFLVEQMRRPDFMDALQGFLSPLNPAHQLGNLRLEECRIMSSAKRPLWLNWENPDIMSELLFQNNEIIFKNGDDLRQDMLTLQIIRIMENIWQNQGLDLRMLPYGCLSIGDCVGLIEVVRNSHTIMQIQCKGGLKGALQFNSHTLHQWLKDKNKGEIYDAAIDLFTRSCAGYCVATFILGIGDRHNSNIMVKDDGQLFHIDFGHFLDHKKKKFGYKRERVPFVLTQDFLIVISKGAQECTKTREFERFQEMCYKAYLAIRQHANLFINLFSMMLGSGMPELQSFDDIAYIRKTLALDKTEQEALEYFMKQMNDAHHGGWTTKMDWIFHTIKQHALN
Sequence (P27986 2-724 partner): as the sequence (P27986 2-724 partner) above
Test: PI3K-Glo ADP detection kinase assay
Assay type: biochemical
PARAMETER: IC50 (µM)
Write the answer as a number in µM, unit excluded.

input: Using the record for COc1ncc(-c2ccc(NC(=O)/C=C/c3cccnc3)c(-n3ccnc3)c2)cc1NS(C)(=O)=O , report its IC50.
output: 6.71

###

Molecular target: ERK
Construct: enzyme source and assay not described; ERK2 used only for docking
Assay: kinase activity profile; ERK assay not described
PARAMETER: IC50 (µM)
Lab book: enter the figure in µM, no units written.

input: Field request: IC50 | item: COc1ncc(-c2ccc(NC(=O)/C=C/c3cccnc3)c(-n3ccnc3)c2)cc1NS(C)(=O)=O
output: 5.67
